# Test Protocol: NCI Yeast Anticancer Drug Screen. Data for the cln2 rad14 strain (AID 165);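 also: 0% = growth equal to vehicle treated cultures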
# Details: S. cerevisiae cln2 rad14 strain, at 5.0 µM (retest, dose inferred, filed as 0.5)
# Description: Growth inhibition of yeast strains with defined genetic alterations is measured as a screen for potential anti-cancer activity. Selected strains with alterations in DNA damage repair or cell cycle control were exposed to compounds and growth inhibition was measured relative to vehicle treated controls. The strain used in this assay is cln2 rad14
Compounds without any hit were thinned out: in the full panel of roughly 79,000, 15% have a hit. The source made the active and inactive calls. Rule as the data show it: active = growth inhibition above about 70%; inactive = the rest.
The categories you may choose from are class 1 for active, class 0 for inactive

### Prompt Hey, what did the test say about [N-]=[N+]=CC(=O)CCC(NC(=O)OCc1ccccc1)C(=O)OCc1ccccc1 (configuration not stated) ?
### Response class 1

### Prompt Just curious, what result did COc1ccc(C2COc3c(ccc(O)c3O)C2)cc1 (configuration not stated) get here?
### Response class 0

### Prompt For CC(=O)OC1CCCc2c1nc1ccccc1[n+]2[O-] (configuration not stated) , what call appears in the results of this test?
### Response class 0

### Prompt What outcome does the record of this test show for `CCOC(=O)C(=Cn1c(=S)[nH]c2ccc([N+](=O)[O-])cc21)C(=O)OCC` ?
### Response class 0

### Prompt Outcome logged for `CC(C)(C)CC(C)(C)NCc1cc(Cl)cc(Cc2cc(Cl)ccc2O)c1O` in this assay:
### Response class 0

### Prompt Test call for this compound, please: `N#CSC#Cc1ccc(C#CSC#N)cc1`
### Response class 1

### Prompt Returns: the outcome recorded for `O=C(Nc1ccccc1)c1cccc2ccccc12` in this assay.
### Response class 0

### Prompt Could you kindly confirm the outcome this assay logged for `OC(Cc1ccccc1)(Cc1ccccc1)c1ccccc1` ?
### Response class 0

### Prompt Field: outcome | Entry: `CCc1ccc(N(C(C)=O)C2=C(Cl)C(=O)c3ccccc3C2=O)cc1`
### Response class 1

### Prompt Hi, do you know how `CN(C)C(=S)N/N=C/c1ccccn1` came out in this test?
### Response class 1

### Prompt Field: outcome | Entry: `O=[N+]([O-])c1ccc(CSSCc2ccc([N+](=O)[O-])cc2)cc1`
### Response class 0

### Prompt # outcome recorded in this test, key = CC(CCCN(C)Cc1ccccc1)Nc1ccnc2cc(Cl)ccc12 (configuration not stated)
### Response class 0

### Prompt Outcome logged for Nc1nc(N)c2nc(CNc3ccc(C(=O)NC(CCC(=O)O)C(=O)O)cc3)ccc2n1 (configuration not stated) in this assay:
### Response class 0

### Prompt Each compound tested received a call. Report the one for `CCCCCCCSCc1nc2ccccc2c(C)[n+]1[O-]` .
### Response class 0

### Prompt Status in this test for `COc1ccc(Oc2c(OC)cc(NCCCCCNC(C)C)c3ncccc23)cc1` ?
### Response class 0

### Prompt For `Oc1ccc2ccccc2c1I` , which call appears in the assay record?
### Response class 1

### Prompt Query: recorded result category for CCCCCCCCCCCCS(=O)(=O)CC(Br)C(=O)c1ccco1 (configuration not stated) in this test
### Response class 0

---

# Test Protocol: NCI Yeast Anticancer Drug Screen. Data for the mec2-1 strain (AID 157)
# Details: S. cerevisiae mec2-1 strain, at 50.0 µM (retest, dose inferred, filed as 5.0), active compounds read high
Compounds without any hit were thinned out: in the full panel of roughly 79,000, 15% have a hit.
Reported Metric: growth inhibition (%)
Give just the numeric value; % need not be written.

### Prompt Could you share which growth inhibition value was measured for `COc1ccc(-n2c3c(c4c(N)ncnc42)CCCC3)cc1` ?
### Response -3

### Prompt What growth inhibition value was documented for this compound, `CCc1nc(N)nc(N)c1-c1ccc(N(C)Cc2ccccc2)c([N+](=O)[O-])c1` ?
### Response 0

### Prompt Using the record for `CC(=O)c1ccc([N+](=O)[O-])o1` , report its growth inhibition.
### Response 99

### Prompt Could you share which growth inhibition value was measured for `Brc1ccc(N=NN2CCCC2)cc1` ?
### Response 8

### Prompt If you can, please state the reported growth inhibition value of `O=NNc1ccc(-c2ccc([N+](=O)[O-])cc2)cn1` .
### Response 37

### Prompt For the compound `CCCc1cc(=O)oc2c3c(c4c(c12)OC(C)(C)CC4)O[C@H](C)[C@H](C)C3=O` , what growth inhibition is on record?
### Response 99

### Prompt // growth inhibition lookup, key: `CCOC(=O)n1c2ccccc2c(=O)n1CCO`
### Response -19

### Prompt Which growth inhibition reading was recorded for the compound COc1ccccc1C1c2cc3c(cc2OC(N2CCOCC2)C1C)OCO3 (stereo not drawn) ?
### Response 9

### Prompt Recorded growth inhibition for C1=NN(c2ccccc2)C2c3ccccc3CCCC12 (stereo not drawn) , please?
### Response 99

### Prompt # query: growth inhibition of entry `C/C(O)=C(/C=N/C(=S)Nc1ccc(S(N)(=O)=O)cc1)C(=O)Nc1ccccc1C`
### Response -4

### Prompt Name the reported growth inhibition value associated with the compound `O=NNc1ncccc1OCc1ccccc1`
### Response 6

### Prompt # query: growth inhibition of entry `COc1cccc(/C=C(\NC(=O)c2ccccc2)c2nc3ccccc3s2)c1`
### Response 96

### Prompt # query: growth inhibition of entry `N#CC(CCCCl)(c1ccccc1)c1ccccc1`
### Response 32

### Prompt Report growth inhibition for `Cc1cc(C)c(Cc2ccccc2O)cc1Cc1ccccc1O` please.
### Response 46

### Prompt Entry `c1ccc(-n2c3ccccc3c3ccccc32)cc1` : reported growth inhibition = ?
### Response 3

### Prompt I would be grateful if you could share the reported growth inhibition for CC(CO)CCC(=O)C(C)C1C(=O)CC2CC3CC(O)CCC3(C)CC21C (stereo not drawn) .
### Response 66

### Prompt Record request: growth inhibition value, item `O=C1c2cc(Br)ccc2NC1(c1c[nH]c2ccccc12)c1c[nH]c2ccccc12`
### Response 90

### Prompt growth inhibition for `COc1ccc2c(c1)[n+]([O-])c(-c1ccc(C)cc1)c(N)[n+]2[O-]` ?
### Response 99

### Prompt Request the reported growth inhibition associated with `c1ccc(COc2ccc(C[P+](c3ccccc3)(c3ccccc3)c3ccccc3)cc2)cc1`
### Response 100

### Prompt Fill in the blank: the reported growth inhibition of `CCCCN1CSC(=S)N(Cc2ccccc2)C1` is ____.
### Response 3

### Prompt Consider the compound `O=C1C=CC(=Nc2ccc(O)c3ncccc23)c2cccnc21` and give its measured growth inhibition.
### Response 96

### Prompt Can you look up the measured growth inhibition of CCOC(=O)C1(C#N)C(c2ccccc2)C1(C#N)C#N (stereo not drawn) for me?
### Response 96

### Prompt Requested read-out: growth inhibition. Entry: O=[N+]([O-])C1C2C=CC(C2)[C@H]1c1ccc(Cl)cc1Cl (stereo partly drawn)
### Response 85
